EXPERIMENT: Half life in Wistar Han rat at 1 mg/kg, iv measured upto 24 hrs by LC-MS/MS analysis
Format: ADME, organism-based
TEST CONDITIONS: in vivo
MEASUREMENT NAME: half-life (h)
Record the value in h, omitting the unit from your answer.

[
  {
    "COMPOUND STRING": "COc1ccc(C[C@@H]2NC(=O)[C@H]([C@@H](C)OC)NC(=O)[C@@H]3[C@@H]4CCN3C(=O)[C@H](Cc3c[nH]c5ccc(F)cc35)NC(=O)[C@H](Cc3cccc(c3)C/C=C/CO4)NC(=O)[C@@H](C)NC(=O)[C@H](C)NC(=O)CCSCc3cccc(c3)CSCCNC(=O)[C@]3(C)CCCN3C2=O)cc1",
    "MEASUREMENT NAME": "half-life",
    "VAL": 2.1
  }
]

Proceeding to the next compound to report its half-life.
Problem: Endpoint output: half-life of `COc1ccc(C[C@@H]2NC(=O)[C@H]([C@@H](C)O)NC(=O)[C@@H]3[C@@H]4CCN3C(=O)[C@@H]3Cc5cn(c6ccc(F)cc56)Cc5cn(nn5)-c5cc(cc(c5)CSCCC(=O)N[C@@H](CN)C(=O)N[C@H](C)C(=O)N[C@@H](Cc5cccc(c5)C/C=C/CO4)C(=O)N3)CSCCNC(=O)[C@]3(C)CCCN3C2=O)cc1` . Value?
Solution: 5.9

Data provenance is ChEMBL document CHEMBL5034034.
